- procedure-summary: Solubility of Sembragiline in media at 37° C.
- Type: physicochemical
- measurement-conditions: aqueous buffer, pH 4.5, 50 mM acetate buffer, read-out: Solubility of Sembragiline After 4 h
readout-type: solubility at 4 h (µg/mL)
Note: unit µg/mL is implicit; provide only the numeric part.

GET /value?item= `CC(=O)N[C@H]1CC(=O)N(c2ccc(OCc3cccc(F)c3)cc2)C1` &field=solubility at 4 h returns 40

---

- procedure-summary: Solubility of Sembragiline in media at 37° C.
- Format: physicochemical
- measurement-conditions: 0.1 N HCl, simulated gastric fluid, pH 1, HCl 0.1N, read-out: Solubility of Sembragiline After 4 h
readout-type: solubility at 4 h (µg/mL)
Note: unit µg/mL is implicit; provide only the numeric part.

GET /value?item= `CC(=O)N[C@H]1CC(=O)N(c2ccc(OCc3cccc(F)c3)cc2)C1` &field=solubility at 4 h returns 40

---

- procedure-summary: Solubility of Sembragiline in media at 37° C.
- Assay type: physicochemical
- measurement-conditions: aqueous buffer, pH 6.8, 50 mM phosphate buffer, read-out: Solubility of Sembragiline After 4 h
readout-type: solubility at 4 h (µg/mL)
Note: unit µg/mL is implicit; provide only the numeric part.

GET /value?item= `CC(=O)N[C@H]1CC(=O)N(c2ccc(OCc3cccc(F)c3)cc2)C1` &field=solubility at 4 h returns 40

---

- procedure-summary: Solubility of Sembragiline in media at 37° C.
- Format: physicochemical
- measurement-conditions: Water, read-out: Solubility of Sembragiline After 4 h
readout-type: solubility at 4 h (µg/mL)
Note: unit µg/mL is implicit; provide only the numeric part.

GET /value?item= `CC(=O)N[C@H]1CC(=O)N(c2ccc(OCc3cccc(F)c3)cc2)C1` &field=solubility at 4 h returns 40

Reference for the values: patent US10702479B2
